Test: qHTS for differential inhibitors of proliferation of Plasmodium falciparum line HB3 (AID 1886);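 also: parasites grown with compound for 72 h before SYBR Green readout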
Conditions: Plasmodium falciparum HB3 proliferation inhibition; series mostly up to 28.7 µM
Inconclusive results are not listed. Calls of active or inactive are those of the source. Calls follow the shape of the dose curve; as a rule, active = well fitted curve in the direction sought with a large enough effect; inconclusive = small, poorly fitted or top-dose-only effect, or another doubt; inactive = no such curve, though single readings can be large or run the other way.
Outcomes: active, inactive

compound	class label
O=C(O)[C@@H]1CCN1	inactive
C[C@]12N[C@H](Cc3ccccc31)c1ccccc12	inactive
CCCN(CCC)[C@@H]1CCc2ccc(O)cc2C1	inactive
NCCc1c[nH]c2ccc(O)cc12	inactive
NC(=O)CN1CC(O)CC1=O (stereo not given)	active

====

Experiment: qHTS for Inhibitors of the Functional Ribonucleoprotein Complex (vRNP) of Lassa (LASV) Arenavirus: LASV Primary Screen - GLuc reporter signal (AID 1347082); also: nearly all actives have a fitted effect of over 60% in size
Conditions: LASV minigenome vRNP, Gaussia luciferase reporter; series mostly up to 57.5 µM
Inconclusive results are not listed. Activity calls are given as the source filed them. The call rests on the fitted dose curve; tested in HEK293 reporter line.
Possible outcomes: active, inactive

compound	class label
C[C@@H]1[C@H](O)[C@@H](C)C=CC=CCCC=CC=CC=CC=C[C@H](O[C@H]2O[C@@H](C)[C@H](O)[C@@H](N)[C@@H]2O)CC2O[C@](O)(C[C@@H](O)[C@H](O)CC[C@@H](O)C[C@@H](O)C[C@@H](O)CC(=O)O[C@H]1C)C[C@H](O)[C@H]2C(=O)O	inactive
CN(C)[C@@H]1C(=O)C(C(N)=O)=C(O)[C@@]2(O)C(=O)C3=C(O)c4c(O)cccc4[C@@](C)(O)[C@H]3[C@H](O)[C@@H]12	inactive
CC(C)Oc1cc(Nc2nc(N[C@@H](C)c3ccc(F)cn3)ncc2Cl)[nH]n1	inactive
COc1ccc(N(C(=O)Oc2c(C)cccc2C)c2ccnc(Nc3ccc(N4CCN(C)CC4)cc3)n2)c(OC)c1	inactive
Nc1ccccc1N	inactive
CC(C)N[C@@H]1CCn2c(=O)[nH]c3cccc(c32)[C@@H]1O	active
CCN(CC)c1ccc(C(=C2C=CC(=[N+](CC)CC)C=C2)c2cc(S(=O)(=O)O)ccc2S(=O)(=O)[O-])cc1	inactive
O=C(Oc1ccccc1)c1cccc(C(=O)Oc2ccccc2)c1	inactive
COc1ccc2cc(CCC(C)=O)ccc2c1	inactive
CC1(C)Cc2c(-c3ccccc3)c(-c3ccc(Cl)cc3)c(CC(=O)O)n2C1	inactive
C[N+]1(C)C2CCC1CC(OC(=O)C(CO)c1ccccc1)C2 (stereo not drawn)	inactive
Clc1cnc(Oc2ccc(Oc3ncc(Cl)cc3Cl)cc2)c(Cl)c1	inactive
CCc1cc(Nc2nccc(-c3c(-c4ccc(OC)c(C(=O)Nc5c(F)cccc5F)c4)nc4ccccn34)n2)c(OC)cc1N1CCC(N2CCN(S(C)(=O)=O)CC2)CC1	inactive
CN(C)CCCN=c1c2ccccc2n(C)c2[nH]c(=O)n(C)c(=O)c12	inactive
CCN(CC)CCCCNc1ncc2cc(-c3cc(OC)cc(OC)c3)c(NC(=O)NC(C)(C)C)nc2n1	inactive
COc1ccccc1-c1cccc(-c2c(O)c3cc(C#N)c(Cl)cc3[nH]c2=O)c1	inactive
O=[N+]([O-])c1ncc[nH]1	inactive
CN[C@@H]1Cc2cccc3[nH]c(=O)n(c23)C1	inactive

====

Test: qHTS for Inhibitors of the Functional Ribonucleoprotein Complex (vRNP) of Lymphocytic Choriomeningitis Arenaviruses (LCMV): Viability assay - alamar blue signal for LCMV Primary Screen (AID 1347085); also: nearly all actives have a fitted effect of over 80% in size
Conditions: alamar blue viability counter-screen, LCMV vRNP screen cells; series mostly up to 57.5 µM
Results filed as inconclusive are left out. Calls of active or inactive are those of the source. The call rests on the fitted dose curve; tested in HEK293 reporter line.
Outcome codes: active, inactive

molecule	class label
CNC(=O)c1ccc(N2C(=S)N(c3ccc(C#N)c(C(F)(F)F)c3)C(=O)C2(C)C)cc1F	inactive
Oc1cccc(-c2nc(N3CCOCC3)c3oc4ncccc4c3n2)c1	active
CN1[C@@H]2CC[C@H]1CC(OC(=O)C(O)c1ccccc1)C2 (some centres undefined)	inactive
CNc1nccc(-c2cccnc2Oc2cc(C(=O)Nc3cccc(C(F)(F)F)c3)ccc2C)n1	inactive
COCCOCCO	inactive
COc1ccc2c(c1)CN(C)CC2c1ccc(Cl)c(Cl)c1 (centres undefined)	inactive
COc1ncnc(NS(=O)(=O)c2ccc(N)cc2)c1OC	inactive
O=C(O)CC(O)C(=O)O (centres undefined)	inactive
C[C@@H]1CN(c2c(F)c(N)c3c(=O)c(C(=O)O)cn(C4CC4)c3c2F)C[C@H](C)N1	inactive
COc1cc2c(Oc3ccc4[nH]c(C)cc4c3F)ncnc2cc1OCCCN1CCCC1	inactive
CC(C)(C(=O)NCC(F)(F)C(F)(F)F)C(=O)N[C@@H]1C(=O)Nc2ccccc2-c2ccccc21	active
CC1=NN(c2ccccc2)C(=O)C1	inactive
CC(C)(c1ccc(O)cc1)c1ccc(O)cc1	inactive
O=C(N[C@H]1CN2CCC1CC2)c1ccc(Cl)cc1	inactive
c1ccc(C2(c3ccccc3)CC2C2=NCCN2)cc1 (centres undefined)	inactive
c1ccc2c(CCNc3ccc(Nc4ccncc4)cc3)c[nH]c2c1	active
[O-][n+]1cccc(CO)c1	inactive
CCC(C)(Oc1ccc(C2(c3ccc(OC(C)(CC)C(=O)O)cc3)CCCCC2)cc1)C(=O)O (centres undefined)	inactive
OCCCBr	inactive
CS(=O)(=O)c1ccc(C(=O)Nc2ccc(Cl)c(-c3ccccn3)c2)c(Cl)c1	inactive
O=C(O)c1ccccc1NCCc1ccccc1	inactive
C=C1C[C@H]2[C@H]3CCC(=O)[C@@]3(C)CC[C@@H]2[C@@]2(C)C=CC(=O)C=C12	inactive
O=S(=O)(O)C(F)(F)C(F)(F)C(F)(F)C(F)(F)F	inactive
OCc1c[nH]c2ccccc12	inactive
